# measurement conditions: human gut metagenome, 24 h, 2 µM; note: call rule not given here
readout type: Bacterial Biotransformation

// below: answered compounds
compound	Bacterial Biotransformation
C[C@@H](CO)NC(=O)[C@@H]1C=C2c3cccc4[nH]cc(c34)C[C@H]2N(C)C1.O=C(O)/C=C\C(=O)O [ERGONOVINE MALEATE]	Compound NOT metabolized
O=C(NCc1ccccc1)OCCO [BURAMATE]	Compound NOT metabolized
CO[C@]12C[C@@H](COC(=O)c3cncc(Br)c3)CN(C)[C@@H]1Cc1cn(C)c3cccc2c13	Compound metabolized
Nc1nc2ccc(OC(F)(F)F)cc2s1	Compound NOT metabolized
Nc1c2c(nc3ccccc13)CCCC2	Compound NOT metabolized
C#C[C@]1(O)CC[C@H]2[C@@H]3CCC4=CC(=O)CC[C@@H]4[C@H]3CC[C@@]21CC	Compound metabolized

compound COc1ccc2c3c1O[C@H]1C[C@@H](O)C=C[C@@]31CCN(C)C2 , Bacterial Biotransformation observed: Compound metabolized

Record summary for CCN(CC)CCOCCOC(=O)C1(c2ccccc2)CCCC1.O=C(O)CC(O)(CC(=O)O)C(=O)O [CARBETAPENTANE CITRATE] : reported Bacterial Biotransformation = Compound metabolized

# Bacterial Biotransformation (compound: CCOc1ccc(NC(C)=O)cc1 ) is Compound NOT metabolized

Recorded Bacterial Biotransformation (compound NC12CC3CC(CC(C3)C1)C2 ): Compound NOT metabolized

Value of measured Bacterial Biotransformation for the entry COc1cc2c(c(OC)c1OC)-c1ccc(OC)c(=O)cc1[C@@H](NC(C)=O)CC2 : Compound NOT metabolized

Per the records, this compound ( C=CCN1CC[C@]23c4c5ccc(O)c4O[C@H]2C(=O)CC[C@@]3(O)[C@H]1C5 ) has Bacterial Biotransformation equal to Compound NOT metabolized

Documented Bacterial Biotransformation of Cc1nc(-c2ccc(OCC(C)C)c(C#N)c2)sc1C(=O)O : Compound metabolized

Looking up OC(CCN1CCCCC1)(c1ccccc1)C1CC2C=CC1C2 (stereo not given) , I found its Bacterial Biotransformation recorded as Compound NOT metabolized

Item: CN1C(=O)CCS(=O)(=O)C1c1ccc(Cl)cc1 (stereo not given) | Bacterial Biotransformation: Compound NOT metabolized

Memo: O=C(Nc1ccccc1)OCC(CN1CCCCC1)OC(=O)Nc1ccccc1 (stereo not given) , reported Bacterial Biotransformation: Compound NOT metabolized

Entry under test: CCc1nc(N)nc(N)c1-c1ccc(Cl)cc1 . Its Bacterial Biotransformation was Compound NOT metabolized

Lab note: CC(C)OC(=O)C(C)(C)Oc1ccc(C(=O)c2ccc(Cl)cc2)cc1 [FENOFIBRATE] gave Bacterial Biotransformation of Compound NOT metabolized

Per the record, OCCOCCN1CCN(C2=Nc3ccccc3Sc3ccccc32)CC1 has Bacterial Biotransformation of Compound NOT metabolized

Record summary for CCCC(=O)Nc1ccc(OCC(O)CNC(C)C)c(C(C)=O)c1 (stereo not given) : reported Bacterial Biotransformation = Compound metabolized

====

# assay overview: The drug is tested on Z-004 corresponding to metagenome with ENA study accession number: PRJEB37062 and ENA sample accession number: ERS12561804 for biotransformation under anaerobic condition. The drug concentrations were measured over 9 timepoints collected between 0 and 24 hours of incubation by liquid-chromatography-coupled mass spectrometry (LC–MS)
# measurement conditions: 2 µM
readout type: Bacterial Biotransformation

Use these answered entries as a reference point.
compound	Bacterial Biotransformation
COc1ccc2[nH]c([S+]([O-])Cc3ncc(C)c(OC)c3C)nc2n1 (configuration not stated) [TENATOPRAZOLE]	Compound metabolized
CNC(=C[N+](=O)[O-])NCCSCc1ccc(CN(C)C)o1 [RANITIDINE]	Compound metabolized
O=c1[nH]c2ccccc2n1CCCN1CCC(n2c(=O)[nH]c3cc(Cl)ccc32)CC1 [DOMPERIDONE]	Compound NOT metabolized
COc1cc2c(c(OC)c1OC)-c1ccc(OC)c(=O)cc1[C@@H](NC(C)=O)CC2 [COLCHICINE]	Compound NOT metabolized
COc1ccc2[nH]c([S+]([O-])Cc3ncc(C)c(OC)c3C)nc2c1 (configuration not stated) [OMEPRAZOLE]	Compound metabolized
Clc1ccc(Cn2c(CN3CCCC3)nc3ccccc32)cc1 [CLEMIZOLE]	Compound NOT metabolized

The compound listed as N#Cc1ccc(C(c2ccc(C#N)cc2)n2cncn2)cc1 [LETROZOLE] shows Bacterial Biotransformation equal to Compound NOT metabolized

The reported Bacterial Biotransformation of the compound O=C(Nc1ccccc1)OCC(CN1CCCCC1)OC(=O)Nc1ccccc1 (configuration not stated) [DIPERODON] was Compound metabolized

Recorded result, CCCCCCOC(=O)/N=C(/N)c1ccc(NCc2nc3cc(C(=O)N(CCC(=O)OCC)c4ccccn4)ccc3n2C)cc1.CS(=O)(=O)O [DABIGATRAN ETEXILATE MESYLATE] , Bacterial Biotransformation: Compound NOT metabolized

// Cc1ccc(S(=O)(=O)NC(=O)NN2CCCCCC2)cc1 [TOLAZAMIDE] : Bacterial Biotransformation value = Compound metabolized
